Target: T1, Fc-tagged recombinant soluble LAG-3 (IMP321) (human, UniProt P18627 23-434)
T1 construct: also called LAG3-Ig molecule IMP321; recombinant sLAG-3; not shown: Fc / Ig part
T1 sequence (looked up): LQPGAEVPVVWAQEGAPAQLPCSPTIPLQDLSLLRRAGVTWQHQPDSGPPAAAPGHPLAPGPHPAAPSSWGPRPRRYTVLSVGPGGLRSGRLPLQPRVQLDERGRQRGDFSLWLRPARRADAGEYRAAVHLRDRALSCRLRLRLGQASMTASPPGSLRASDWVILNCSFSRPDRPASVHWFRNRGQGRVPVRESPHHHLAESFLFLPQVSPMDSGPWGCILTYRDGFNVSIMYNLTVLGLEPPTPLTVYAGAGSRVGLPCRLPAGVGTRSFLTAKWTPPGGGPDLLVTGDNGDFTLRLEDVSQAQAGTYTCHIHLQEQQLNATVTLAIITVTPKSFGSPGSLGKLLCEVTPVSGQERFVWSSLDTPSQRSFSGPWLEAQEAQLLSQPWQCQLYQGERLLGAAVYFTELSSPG
Assay: SPR Biacore 3000, off-rate comparison with IMP731, IMP321 analyte at 64 nM
Would you mind telling me the reported Rank order of off-rates of each entry?

Known Rank order of off-rates results, listed for orientation:
H4L7 (antibody, human IgG1, kappa, V domains shown, Humanised anti-LAG-3 variant, HEK 293 6E expressed) VH: QVQLQESGPGLVKPSETLSLTCTVSGFSLTAYGVNWIRQPPGKGLEWLGMIWDDGSTDYNSALKSRLTISKDNSKNQVSLKLSSVTAADTAVYYCAREGDVAFDYWGQGTLVTVSS VL: DIQMTQSPSSLSASVGDRVTITCKSSQSLLNPSNQKNYLAWYQQKPGKAPKLLVYFASTRDSGVPSRFSGSGSGTDFTLTISSLQPEDFATYYCLQHFGTPPTFGQGTKLEIKR :: 4
H7L7 (antibody, human IgG1, kappa, V domains shown, Humanised anti-LAG-3 variant, HEK 293 6E expressed) VH: QVQLQESGPGLVKPSETLSLTCTVSGGSISAYGVNWIRQPPGKGLEWIGMIWDDGSTDYDSALKSRVTISVDTSKNQFSLKLSSVTAADTAVYYCAREGDVAFDYWGQGTLVTVSS VL: DIQMTQSPSSLSASVGDRVTITCKSSQSLLNPSNQKNYLAWYQQKPGKAPKLLVYFASTRDSGVPSRFSGSGSGTDFTLTISSLQPEDFATYYCLQHFGTPPTFGQGTKLEIKR :: 8
J0L7 (antibody, human IgG1, kappa, V domains shown, Humanised anti-LAG-3 variant, HEK 293 6E expressed) VH: QVQLVQSGAEVKKPGSSVKVSCKASGGTFSAYGVNWVRQAPGQGLEWMGMIWDDGSTDYNSALKSRVTITADKSTSTAYMELSSLRSEDTAVYYCAREGDVAFDYWGQGTLVTVSS VL: DIQMTQSPSSLSASVGDRVTITCKSSQSLLNPSNQKNYLAWYQQKPGKAPKLLVYFASTRDSGVPSRFSGSGSGTDFTLTISSLQPEDFATYYCLQHFGTPPTFGQGTKLEIKR :: 9
J7L7 (antibody, human IgG1, kappa, V domains shown, Humanised anti-LAG-3 variant, HEK 293 6E expressed) VH: QVQLVQSGAEVKKPGSSVKVSCKASGFSLTAYGVNWVRQAPGQGLEWMGMIWDDGSTDYNSALKSRVTITADKSTSTAYMELSSLRSEDTAVYYCAREGDVAFDYWGQGTLVTVSS VL: DIQMTQSPSSLSASVGDRVTITCKSSQSLLNPSNQKNYLAWYQQKPGKAPKLLVYFASTRDSGVPSRFSGSGSGTDFTLTISSLQPEDFATYYCLQHFGTPPTFGQGTKLEIKR :: 3

Kindly review the next binder as well.
H1L7 (antibody, human IgG1, kappa, V domains shown, Humanised anti-LAG-3 variant, HEK 293 6E expressed) VH: QVQLQESGPGLVKPSETLSLTCTVSGFSLTAYGVNWIRQPPGKGLEWIGMIWDDGSTDYNSALKSRVTISVDTSKNQFSLKLSSVTAADTAVYYCAREGDVAFDYWGQGTLVTVSS VL: DIQMTQSPSSLSASVGDRVTITCKSSQSLLNPSNQKNYLAWYQQKPGKAPKLLVYFASTRDSGVPSRFSGSGSGTDFTLTISSLQPEDFATYYCLQHFGTPPTFGQGTKLEIKR yielded Rank order of off-rates of 2
